- Target Entity: T1, human galectin-10-His (human)
- T1 construct: The last M of the tag may be Met1 of galectin-10; also called humanGal10-His; hGal10
- T1 chain: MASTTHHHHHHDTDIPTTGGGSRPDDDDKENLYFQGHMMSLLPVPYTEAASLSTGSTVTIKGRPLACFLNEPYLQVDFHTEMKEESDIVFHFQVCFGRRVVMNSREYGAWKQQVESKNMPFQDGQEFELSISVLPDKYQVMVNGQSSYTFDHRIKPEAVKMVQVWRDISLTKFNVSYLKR
- Protocol Text: binding ELISA (summary table)
Measured Parameter: log10 of EC50 (log10 of the value in nM)
Units before log transform: nM; reported quantity: EC50; transform: log10.

Some solved entries appear below for comparison.
Binder	Measured Parameter	Endpoint Result
11F12 scFv-human Fc (Fc fusion, also called 011F12; not shown: CH2-CH3 constant domains of human IgG1 (pUPEX50 scFv-Fc fusion vector)) scFv: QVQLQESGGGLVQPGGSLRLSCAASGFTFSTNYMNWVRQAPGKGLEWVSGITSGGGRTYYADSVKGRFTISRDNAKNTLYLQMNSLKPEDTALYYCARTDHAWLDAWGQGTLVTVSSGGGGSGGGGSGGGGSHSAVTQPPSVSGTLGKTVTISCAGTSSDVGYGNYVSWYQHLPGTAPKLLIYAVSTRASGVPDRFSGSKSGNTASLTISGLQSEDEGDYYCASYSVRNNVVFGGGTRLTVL	log10 of EC50	-0.25
10D02 scFv-human Fc (Fc fusion, also called 010D02; not shown: CH2-CH3 constant domains of human IgG1 (pUPEX50 scFv-Fc fusion vector)) scFv: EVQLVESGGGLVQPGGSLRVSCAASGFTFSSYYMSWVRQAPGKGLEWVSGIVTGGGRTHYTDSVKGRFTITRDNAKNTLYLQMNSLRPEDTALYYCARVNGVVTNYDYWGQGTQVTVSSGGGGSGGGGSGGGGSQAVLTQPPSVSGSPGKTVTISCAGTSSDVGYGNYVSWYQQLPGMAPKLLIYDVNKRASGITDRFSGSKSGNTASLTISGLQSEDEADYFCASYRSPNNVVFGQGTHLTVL	log10 of EC50	-0.25
11F02 scFv-human Fc (Fc fusion, also called 011F02; not shown: CH2-CH3 constant domains of human IgG1 (pUPEX50 scFv-Fc fusion vector)) scFv: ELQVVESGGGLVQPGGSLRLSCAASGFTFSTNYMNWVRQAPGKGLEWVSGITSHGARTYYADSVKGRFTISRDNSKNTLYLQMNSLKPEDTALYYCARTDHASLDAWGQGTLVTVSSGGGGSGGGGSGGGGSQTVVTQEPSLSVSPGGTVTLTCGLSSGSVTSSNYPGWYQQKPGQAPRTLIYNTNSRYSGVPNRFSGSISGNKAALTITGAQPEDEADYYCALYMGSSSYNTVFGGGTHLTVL	log10 of EC50	-0.11
8H11 scFv-human Fc (Fc fusion, also called 008H11; not shown: CH2-CH3 constant domains of human IgG1 (pUPEX50 scFv-Fc fusion vector)) scFv: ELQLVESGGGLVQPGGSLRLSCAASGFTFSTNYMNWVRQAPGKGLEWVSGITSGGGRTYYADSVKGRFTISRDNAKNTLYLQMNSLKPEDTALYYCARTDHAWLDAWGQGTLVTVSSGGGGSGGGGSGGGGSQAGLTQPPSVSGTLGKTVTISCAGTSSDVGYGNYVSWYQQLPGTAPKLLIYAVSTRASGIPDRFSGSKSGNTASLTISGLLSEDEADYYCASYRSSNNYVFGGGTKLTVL	log10 of EC50	-0.74
10B02 scFv-human Fc (Fc fusion, also called 010B02; not shown: CH2-CH3 constant domains of human IgG1 (pUPEX50 scFv-Fc fusion vector)) scFv: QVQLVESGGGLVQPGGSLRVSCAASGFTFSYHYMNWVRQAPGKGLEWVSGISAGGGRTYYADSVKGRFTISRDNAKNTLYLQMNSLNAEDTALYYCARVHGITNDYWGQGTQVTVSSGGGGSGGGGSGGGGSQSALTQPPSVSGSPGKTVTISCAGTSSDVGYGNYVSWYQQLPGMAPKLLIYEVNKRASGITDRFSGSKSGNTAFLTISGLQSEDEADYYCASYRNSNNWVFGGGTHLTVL	log10 of EC50	-1.05

Could you now consider this next binder?
stdin: # input binder: 7B07 scFv-human Fc (Fc fusion, also called 007B07; not shown: CH2-CH3 constant domains of human IgG1 (pUPEX50 scFv-Fc fusion vector)) scFv: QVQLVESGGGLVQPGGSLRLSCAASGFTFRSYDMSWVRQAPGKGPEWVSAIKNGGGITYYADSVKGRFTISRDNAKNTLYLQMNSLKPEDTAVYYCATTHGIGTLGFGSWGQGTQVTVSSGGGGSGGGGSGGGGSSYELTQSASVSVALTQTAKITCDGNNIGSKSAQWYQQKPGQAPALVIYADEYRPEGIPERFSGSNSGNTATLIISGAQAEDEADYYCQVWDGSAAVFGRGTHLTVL ; wanted: its log10 of EC50
stdout: 0.05
